run description: Confirmation screen for delayed death inhibitors of the malarial parasite plastid, 96 hour incubation; note: nearly all actives have a fitted effect of over 60% in size
experimental setup: P. falciparum luciferase growth in erythrocytes; series mostly up to 28.7 µM
About 1,400 (61%) of roughly 2,300 compounds were called active. Another 29% or so got no clear call; they are omitted. Calls come from the whole dose curve; as a rule, active = well fitted inhibition curve with a large enough effect; inconclusive = small, poorly fitted or top-dose-only effect, or effect the other way; inactive = no such curve, though single readings can be large or run the other way. The set was probably picked from earlier hits. The list shows a part of the results.
Log the outcome using a class from true (1) for active, false (0) for inactive

A selection of reference data follows.
COc1ccc(/C=C/C(=O)c2ccc(NS(=O)(=O)c3ccc(C)cc3)cc2)cc1O: true (1)
COc1cccc(/C=C/C(=O)c2ccc(NS(=O)(=O)c3ccc(C)cc3)cc2)c1: true (1)
Cc1cc2nsnc2c(S(=O)(=O)N2CCN(C)CC2)c1C: false (0)
O=C(NCc1ccccn1)Nc1cc(Cl)ccc1Cl: true (1)
O=C(N/N=C/c1ccc([N+](=O)[O-])cc1)c1cccc(N2CCCC2=O)c1: true (1)

For this compound, state the assay outcome: COc1ccc(Nc2nnc(-c3ccccc3)c3ccccc23)cc1C(=O)N1CCCCC1
true (1)

Ok, now CCC1CCCCN1CCCNC(=O)Cn1c(=O)c2cccn2c2cccnc21 (stereo unspecified)
false (0)

Also O=C(CCl)N1CCN(CC(=O)N2CCCC2)CC1 , if possible.
true (1)

----------
run description: Confirmation screen for delayed death inhibitors of the malarial parasite plastid, 96 hour incubation; note: nearly all actives have a fitted effect of over 60% in size; note: potency is the fitted concentration of half-maximal effect
experimental setup: P. falciparum luciferase growth in erythrocytes; series mostly up to 28.7 µM
The whole screen tested about 2,300 compounds, of which about 1,400 (61%) were called active. About 29% were inconclusive and are not listed. So high a share suggests a set chosen from earlier hits. The list shows a part of the results.
endpoint name: Potency

Here's what some known entries look like.
CC(C)CCSc1nc(N)c(C#N)cc1C#N: 5.62 µM (active)
COc1cc(CNC2CCCCCCC2)ccc1OCC(N)=O: 12.6 µM (active)
Cc1ccc(-n2ncc3c2CC(C)(C)CC3NC(=O)c2c(C)noc2C)cc1 (stereo not given): 12.6 µM (active)
O=C(CSc1nc2ccccc2c(=O)[nH]1)Nc1cccc([N+](=O)[O-])c1: 14.1 µM (active)
COCCNC(=O)c1cccc(OC2CCN(Cc3ccc(C(C)C)cc3)CC2)c1: 11.2 µM (active)
CC[C@H]1OC(=O)[C@H](C)[C@@H](O[C@H]2C[C@@](C)(OC)[C@@H](O)[C@H](C)O2)[C@H](C)[C@@H](O[C@@H]2O[C@H](C)C[C@H](N(C)C)[C@H]2O)[C@](C)(O)C[C@@H](C)CN(C)[C@H](C)[C@@H](O)[C@]1(C)O: 0.631 µM (active)

Which Potency value is on record for COCCNC(=O)c1cccc(OC2CCN(Cc3cccc(SC)c3)CC2)c1 ?
12.6 µM (active)

Again, but for Cc1ccc2nc(CNC(=O)C3CCC(=O)N(Cc4ccccc4F)C3)cn2c1 (stereo not given)
11.2 µM (active)

----------
run description: Confirmation screen for delayed death inhibitors of the malarial parasite plastid, 96 hour incubation; note: nearly all actives have a fitted effect of over 60% in size; note: potency is the fitted concentration of half-maximal effect
experimental setup: P. falciparum luciferase growth in erythrocytes; series mostly up to 28.7 µM
Hit rate of the full screen: of about 2,300 compounds, about 1,400 (61%) were called active. Another 29% or so got no clear call; they are omitted. The set was probably picked from earlier hits. Some of the results follow.
endpoint name: Potency

CCc1nc(SCC(=O)Nc2ccc(N(C)C)cc2)n[nH]1: 2820 nM (active)
Cc1ccc(Cl)cc1N1CCN(c2cccc[n+]2C)CC1: 2000 nM (active)

Given the entry CCC[C@H]1C[C@H](C(=O)N[C@@H]([C@H]2O[C@@H](SC)[C@@H](O)[C@@H](O)[C@@H]2O)[C@H](C)Cl)N(C)C1 , report its measured Potency.
199 nM (active)

# repeat for CCCCNc1nc2sc3c(c2c(=O)n1-c1cccc(Cl)c1)CCN(C)C3
1260 nM (active)

Cc1cc(C)c(NC(=O)c2cccc3c2C(=O)N(C2CCCCC2)C3)c(C)c1 , same question.
7940 nM (active)

Ok, now N#Cc1c(N2C(=O)Nc3ccccc3N2O)sc2c1CCCCCC2
14100 nM (active)

What about Cc1cnc(CNC(=O)c2ccc3oc(Cc4ccc(Cl)cc4)nc3c2)cn1 ?
12600 nM (active)

Note, next up: CCCN1CCc2c(sc3nc(SCC)n(-c4ccccc4)c(=O)c23)C1
631 nM (active)

Another compound to check: Cc1nn(-c2ccccc2)c(N2CCCC2)c1/C=N/NC(=S)Nc1ccccc1F
12600 nM (active)

Then this compound: CCCCCNc1nc2sc3c(c2c(=O)n1-c1cccc(Cl)c1)CCN(C)C3
2240 nM (active)

# credit: PubChem BioAssay AID504848
